# test.name: Selectivity ratio of IC50 for rat L6 cells to IC50 for human A549 cells
# Type: ADME, cell-based
# assay.setup: L6 cells and A549 cells, read-out: Ratio IC50
value.kind: selectivity ratio

Looking for the measured selectivity ratio of `COc1cc([C@@H]2c3cc4c(cc3[C@@H](OCCCCO[C@@H]3c5cc6c(cc5[C@@H](c5cc(OC)c(O)c(OC)c5)[C@H]5C(=O)OC[C@@H]53)OCO6)[C@H]3COC(=O)[C@H]23)OCO4)cc(OC)c1O` , can you help?
4.3

Looking for the measured selectivity ratio of `CCCCO[C@@H]1c2cc3c(cc2[C@@H](c2cc(OC)c(O)c(OC)c2)[C@H]2C(=O)OC[C@@H]21)OCO3` , can you help?
1.6

Looking for the measured selectivity ratio of COc1cc([C@@H]2c3cc4c(cc3[C@@H](O[C@@H]3O[C@@H]5CO[C@@H](C)O[C@H]5[C@H](O)[C@H]3O)[C@H]3COC(=O)[C@H]23)OCO4)cc(OC)c1O [ETOPOSIDE] , can you help?
6.7

Looking for the measured selectivity ratio of `COc1cc([C@@H]2c3cc4c(cc3[C@@H](OCCCCCCO[C@@H]3c5cc6c(cc5[C@@H](c5cc(OC)c(O)c(OC)c5)[C@H]5C(=O)OC[C@@H]53)OCO6)[C@H]3COC(=O)[C@H]23)OCO4)cc(OC)c1O` , can you help?
2.5
